B1: Azoarcus group I ribozyme (parent)
chain: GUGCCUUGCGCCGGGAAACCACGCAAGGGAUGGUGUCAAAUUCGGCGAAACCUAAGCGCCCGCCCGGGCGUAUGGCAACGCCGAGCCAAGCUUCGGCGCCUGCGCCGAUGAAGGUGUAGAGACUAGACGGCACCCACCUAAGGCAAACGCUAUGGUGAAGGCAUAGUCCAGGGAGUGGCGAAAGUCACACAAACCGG

- Variants of: B1
- Assay: reverse-splicing fitness (ratio to wild type); higher = more active; in vitro selection; Mg2+ level not given
Label -1 if reverse-splicing fitness falls below 0.02; label 1 in every other case.

As a guide, the following entries are already answered.
Mutant	Answer label
C82U A111G A120U A145C C150A C169G U176A	-1
C82A A111C A120U A145U C150G C169G	-1
C82A A111C A120U A145U C150A C169G U176A	-1
C82A A111G A145C C150U C169U U176C	-1
C82A A111G A145U C150G C169G U176A	-1
A111G A120C A145C C150A C169A	-1
C82U A111U A120G A145C C150G C169U U176C	-1
C82A A111U A120U A145U C150U C169A U176C	-1

API: above_or_equal(metric=reverse-splicing fitness, cutoff=0.02) for item C82A A111C A120U A145U C150U
-1

For A120C A145G C169U then?
1

For A145G C150G C169G U176C then?
-1

For C82G A111U A120C A145G C150G C169G U176G then?
-1

For C82U A111G A120U A145C C150U U176G then?
-1

For C82U A111C A120U A145C C150G C169G U176C then?
-1

For C82A A111U A120G C150A C169U then?
-1

For C82U A111U A120C A145U C150G C169U U176C then?
-1

For C82G A111U A120C A145C C150A C169U then?
-1

For C82G C150A C169A U176C then?
-1

For A120U A145U C169U U176C then?
1

For C82A A111U A120C A145U U176A then?
-1

For C82G A111C A145U C150G U176C then?
1

For C82A A111C A120C C150G C169G U176A then?
-1

All values here come from the RNAGym collection of RNA variant scans (doi:10.1093/molbev/msab373).
